In this section, each of the binders is paired with its reported ELISA signal (called MFI).
# ASSAY_TARGET: T1, Human ROR1-ECD-his (human, UniProt Q01973 30-406)
# T1 construct: extracellular domain; bought, Acrobiosystems RO1-H522y; also called hROR1-ECD-his; hROR1 ECD-his
# T1 sequence (Q01973 30-406): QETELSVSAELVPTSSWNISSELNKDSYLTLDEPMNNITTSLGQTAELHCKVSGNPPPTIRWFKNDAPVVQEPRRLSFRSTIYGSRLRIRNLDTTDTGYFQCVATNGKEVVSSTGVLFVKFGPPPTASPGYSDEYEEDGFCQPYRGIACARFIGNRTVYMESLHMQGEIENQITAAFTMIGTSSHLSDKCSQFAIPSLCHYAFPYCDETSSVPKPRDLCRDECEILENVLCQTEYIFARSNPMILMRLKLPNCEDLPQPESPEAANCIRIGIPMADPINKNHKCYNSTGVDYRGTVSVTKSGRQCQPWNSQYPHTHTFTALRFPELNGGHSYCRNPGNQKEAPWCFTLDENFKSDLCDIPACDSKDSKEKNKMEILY
# EXPERIMENT_NOTES: ELISA, plate coated with hROR1 ECD-his
# Method: Screening by ELISA assay: 96-well plates (Corning 9018) were coated with 1 μg/mL hROR1 ECD-his/hROR2 ECD-his/mROR1 ECD-his proteins prepared with PBS in Example 1a above and incubated at 4° C. overnight. The liquid was then discarded, and the plates were washed 3 times with PBST, blocked with 5% milk for 2 h at room temperature, and washed 3 times with PBST. […] Thereafter, the reaction was terminated and data were read. […]
Keep the answer to the number alone.

PR001415 (antibody, human IgG1, kappa, V domains shown, fully human IgG1, kappa) VH: EVQLVESGGGVVQPGRSLRLSCAASGFTFSNSGMHWVRQAPGKGLEWVAIMWYDGSNKDYADSVKGRFTISRDTSKNTLYLQMNSLRAEDTAVYYCAREQARSFDLWGRGTLVTVSS VL: DIVMTQSPSTLSASVGDRVTITCRASQTINNWLAWYQQKPGKAPKLLIYKASSLESGVPSRFSGSGSGTEFTLTISSLQPDDFATYYCQQYNSYSPMYTFGQGTKVEIKR | 2.61
PR001362 (antibody, V domains shown, fully human IgG1, kappa) VH: QVQLVESGGGLVQPGGSLRLSCAASGFTFSTYGMHWVRQAPGKGLEWVAVIWYDGSDEDYADSVKGRFTISRDNSKNTLYLQMNSLRAEDTAVYYCARDQARSFDLWGRGTLVTVSS VL: DIVMTQSPSTLSASVGDRVTITCRASQSINSWLAWYQQKPGKAPKLLIYKASSLESGVPSRFSGSGSGTEFTLTISSLQPDDFATYYCQQYKSYSPMYTFGQGTKVEIKR | 2.22

Continue with the next binder.
Any idea what ELISA signal (called MFI) was measured for PR001363 (antibody, human IgG1, kappa, V domains shown, fully human IgG1, kappa) VH: QVQLVESGGGVVQPGRSLRLSCAASGFSFSSYAMHWVRQAPGRGLEWVAVIWYDGGDEDSIDSVKGRFTISRDDSKNTLYLQMNSLRAEDTAVYYCAREQARSFDLWGRGTLVTVSS VL: DVVMTQSPSTLSASVGDRVTITCRASQTINNWLAWYQQKPGKAPKLLIYKASSLESGVPSRFSGSGSGTEFTLTISSLQPDDFATYYCQQYNSYSPMYTFGQGTKVEIKR ?
2.45
